Attribute: AC40
TARGET_ENTITY: Endoplasmic reticulum aminopeptidase 1 (Homo sapiens)
ASSAY_NOTES: ERAP1 aminopeptidase activity change, dose response, biochemical, fluorescence, cherry-pick (AID 743317)
STATED_CONDITIONS: ERAP1 enzyme, Leu-AMC fluorescence, 60 min
Records with an inconclusive call do not appear.

GET /values?readout=AC40&system=Endoplasmic reticulum aminopeptidase 1 (Homo sapiens)&item= "COc1cccc(CN(C)Cc2cc(=O)oc3cc(O)c(Cl)cc23)c1"
2.9 µM

GET /values?readout=AC40&system=Endoplasmic reticulum aminopeptidase 1 (Homo sapiens)&item= "CCCNC(=O)C[C@H]1CC[C@@H]2[C@H](COC[C@H](O)CN2C(=O)Nc2cccc(Cl)c2)O1"
3.41 µM

GET /values?readout=AC40&system=Endoplasmic reticulum aminopeptidase 1 (Homo sapiens)&item= "CCCN(C)C[C@@H]1OCCCC[C@@H](C)Oc2ccc(NS(=O)(=O)c3c(C)noc3C)cc2C(=O)N([C@H](C)CO)C[C@@H]1C"
1.24 µM

GET /values?readout=AC40&system=Endoplasmic reticulum aminopeptidase 1 (Homo sapiens)&item= "C[C@H](CO)N1C[C@H](C)[C@H](CN(C)Cc2ccc(C(=O)O)cc2)Oc2c(NC(=O)Nc3ccccc3)cccc2C1=O"
2.46 µM

GET /values?readout=AC40&system=Endoplasmic reticulum aminopeptidase 1 (Homo sapiens)&item= "C[C@@H]1CCCCO[C@H](CN(C)Cc2ccc(C(=O)O)cc2)[C@@H](C)CN([C@H](C)CO)C(=O)c2cc(NC(=O)Nc3ccc(C(F)(F)F)cc3)ccc2O1"
< 0.16 µM

GET /values?readout=AC40&system=Endoplasmic reticulum aminopeptidase 1 (Homo sapiens)&item= "C[C@@H]1CCCCO[C@@H](CN(C)C)[C@@H](C)CN([C@@H](C)CO)C(=O)c2cc(NS(=O)(=O)c3ccc(F)cc3)ccc2O1"
0.454 µM

GET /values?readout=AC40&system=Endoplasmic reticulum aminopeptidase 1 (Homo sapiens)&item= "COc1ccc(CN(C)C[C@H]2OCCCC[C@@H](C)Oc3ccc(NS(=O)(=O)c4cccs4)cc3C(=O)N([C@@H](C)CO)C[C@@H]2C)cc1"
4.59 µM

----------
Attribute: AC40
TARGET_ENTITY: Endoplasmic reticulum aminopeptidase 1 (Homo sapiens) (UniProt Q9NZ08)
Sequence (Q9NZ08 whole entry, looked up): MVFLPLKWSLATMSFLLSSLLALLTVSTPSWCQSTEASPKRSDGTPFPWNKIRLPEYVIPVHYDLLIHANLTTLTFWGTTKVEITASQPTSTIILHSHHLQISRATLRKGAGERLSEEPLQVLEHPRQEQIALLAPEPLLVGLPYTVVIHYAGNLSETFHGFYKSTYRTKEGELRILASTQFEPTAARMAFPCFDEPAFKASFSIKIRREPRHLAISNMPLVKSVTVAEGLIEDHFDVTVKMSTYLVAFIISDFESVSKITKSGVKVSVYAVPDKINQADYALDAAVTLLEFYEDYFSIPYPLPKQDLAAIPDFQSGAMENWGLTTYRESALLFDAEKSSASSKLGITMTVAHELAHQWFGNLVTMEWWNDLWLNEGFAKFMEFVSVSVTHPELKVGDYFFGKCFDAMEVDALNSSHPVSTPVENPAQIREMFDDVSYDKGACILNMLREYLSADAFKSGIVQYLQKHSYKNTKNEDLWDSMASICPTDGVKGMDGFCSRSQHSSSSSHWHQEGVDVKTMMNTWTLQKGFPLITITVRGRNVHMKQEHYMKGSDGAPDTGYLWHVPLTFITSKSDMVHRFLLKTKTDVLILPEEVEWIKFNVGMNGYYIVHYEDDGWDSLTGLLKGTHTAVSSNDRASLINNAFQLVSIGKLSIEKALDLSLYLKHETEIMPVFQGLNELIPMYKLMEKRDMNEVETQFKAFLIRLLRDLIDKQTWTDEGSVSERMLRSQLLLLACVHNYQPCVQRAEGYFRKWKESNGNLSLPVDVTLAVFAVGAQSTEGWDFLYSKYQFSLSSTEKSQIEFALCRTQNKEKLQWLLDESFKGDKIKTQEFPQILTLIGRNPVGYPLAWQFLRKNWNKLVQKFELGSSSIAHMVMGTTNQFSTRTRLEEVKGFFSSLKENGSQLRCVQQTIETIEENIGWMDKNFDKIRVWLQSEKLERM
ASSAY_NOTES: ERAP1 aminopeptidase activity change, dose response, biochemical, fluorescence, cherry-pick (AID 743317)
STATED_CONDITIONS: ERAP1 enzyme, Leu-AMC fluorescence, 60 min
Results filed as inconclusive are left out.

Solved entries (count: 2):
1) CCCN(C)C[C@@H]1OCCCC[C@H](C)Oc2ccc(NC(=O)Nc3ccc(F)cc3)cc2C(=O)N([C@H](C)CO)C[C@@H]1C = 4.37 µM
2) C[C@H]1CN([C@@H](C)CO)C(=O)c2cccc(NC(=O)Nc3ccc(C(F)(F)F)cc3)c2O[C@@H]1CN(C)C = 1.41 µM

Which AC40 is reported for this compound? "COc1ccc(NC(=O)Nc2ccc3c(c2)C(=O)N([C@@H](C)CO)C[C@@H](C)[C@@H](CN(C)Cc2ccc(C(=O)O)cc2)OCCCC[C@@H](C)O3)cc1"
< 0.08 µM

Which AC40 is reported for this compound? "CCCNC(=O)C[C@@H]1CC[C@@H]2[C@H](COC[C@H](O)CN2C(=O)Nc2cccc(Cl)c2)O1"
6.77 µM

Which AC40 is reported for this compound? "C[C@@H]1CN([C@H](C)CO)C(=O)c2cccc(NC(=O)Nc3ccccc3)c2O[C@@H]1CN(C)Cc1ccc(C(=O)O)cc1"
3.61 µM

Which AC40 is reported for this compound? "C[C@@H]1CCCCO[C@@H](CN(C)CC2CCCCC2)[C@H](C)CN([C@@H](C)CO)C(=O)c2cc(NC(=O)Nc3ccccc3)ccc2O1"
0.357 µM

Which AC40 is reported for this compound? "C[C@@H]1CCCCO[C@@H](CN(C)C)[C@@H](C)CN([C@H](C)CO)C(=O)c2cc(NS(=O)(=O)c3ccc(Cl)cc3)ccc2O1"
0.381 µM

Which AC40 is reported for this compound? "C[C@H](CO)N1C[C@H](C)[C@@H](CN(C)C)Oc2c(NC(=O)Nc3ccc(C(F)(F)F)cc3)cccc2C1=O"
0.762 µM

----------
TARGET_ENTITY: Endoplasmic reticulum aminopeptidase 1 (Homo sapiens)
ASSAY_NOTES: ERAP1 aminopeptidase activity change, dose response, biochemical, fluorescence, cherry-pick (AID 743317)
STATED_CONDITIONS: ERAP1 enzyme, Leu-AMC fluorescence, 60 min; at 5.6 µM (top of the series)
Inconclusive results are not listed.
Please use True whenever activity increase (activation) is not below -80%, and False whenever it is.

1. Cc1cc2nc(-c3ccc[nH]c3=O)[nH]c2cc1C = True

I'd appreciate it if you could say whether "COC(=O)Cc1c(C)c2ccc(O)c(CNCc3ccc(OC)c(OC)c3)c2oc1=O" has activity increase (activation) at least equal to -80%.
True

I'd appreciate it if you could say whether "CC1CCN(Cc2cc(=O)oc3cc(O)c(Cl)cc23)CC1" has activity increase (activation) at least equal to -80%.
True

I'd appreciate it if you could say whether "CCCc1cc(=O)oc2c(CN3CCN(C)CC3)c(O)ccc12" has activity increase (activation) at least equal to -80%.
True

I'd appreciate it if you could say whether "CN1CCN(Cc2c(O)ccc3cc(-c4ccccn4)c(=O)oc23)CC1" has activity increase (activation) at least equal to -80%.
False

I'd appreciate it if you could say whether O=c1ccc2cc(OC3O[C@H](CO)[C@@H](O)[C@H](O)[C@H]3O)c(O)cc2o1 (some centres not stated) has activity increase (activation) at least equal to -80%.
False

----------
TARGET_ENTITY: Endoplasmic reticulum aminopeptidase 1 (Homo sapiens) (UniProt Q9NZ08)
ASSAY_NOTES: ERAP1 aminopeptidase activity change, dose response, biochemical, fluorescence, cherry-pick (AID 743317)
STATED_CONDITIONS: ERAP1 enzyme, Leu-AMC fluorescence, 60 min; at 11 µM (top of the series)
Results filed as inconclusive are left out.
OBSERVED_PROPERTY: activity increase (activation) (%)
Respond with the bare value in %.

Solved entries (count: 4):
1) CCN1CCN(Cc2c(O)ccc3c(C)cc(=O)oc23)CC1 = -54.6
2) CN1[C@@H]2c3ccc(/C=C/c4ccccc4)c(=O)n3C[C@@H]2[C@@H](CO)[C@@H]1C(=O)NC1CCCC1 = -14.6
3) CCc1cc(=O)oc2c(CN3CCN(C)CC3)c(O)ccc12 = -65.3
4) Cc1c(C)c2ccc(O)c(CN3CCCC3)c2oc1=O = -57

Here is another compound to look at.
Which activity increase (activation) is reported for this compound? "CN(C)Cc1c(O)ccc2cc(-c3nc4ccccc4n3C)c(=O)oc12"
-107

----------
TARGET_ENTITY: Endoplasmic reticulum aminopeptidase 1 (Homo sapiens) (UniProt Q9NZ08)
ASSAY_NOTES: ERAP1 aminopeptidase activity change, dose response, biochemical, fluorescence, cherry-pick (AID 743317)
STATED_CONDITIONS: ERAP1 enzyme, Leu-AMC fluorescence, 60 min
Results filed as inconclusive are left out.
OBSERVED_PROPERTY: AC40

Solved entries (count: 3):
1. C[C@H](CO)N1C[C@H](C)[C@H](CN(C)Cc2ccncc2)Oc2c(NC(=O)Nc3ccc(C(F)(F)F)cc3)cccc2C1=O = 704 nM
2. O=C(C[C@H]1CC[C@H]2[C@@H](COC[C@@H](O)CN2C(=O)Nc2cccc(Cl)c2)O1)N1CCCCC1 = 211 nM
3. C[C@H](CO)N1C[C@H](C)[C@H](CN(C)C)Oc2c(NC(=O)Nc3ccc(C(F)(F)F)cc3)cccc2C1=O = 935 nM

Which AC40 is reported for this molecule? "C[C@@H]1CCCCO[C@@H](CN(C)Cc2ccc3c(c2)OCO3)[C@@H](C)CN([C@H](C)CO)C(=O)c2cc(NS(=O)(=O)c3cccs3)ccc2O1"
< 80 nM

----------
TARGET_ENTITY: Endoplasmic reticulum aminopeptidase 1 (Homo sapiens)
ASSAY_NOTES: ERAP1 aminopeptidase activity change, dose response, biochemical, fluorescence, cherry-pick (AID 743317)
STATED_CONDITIONS: ERAP1 enzyme, Leu-AMC fluorescence, 60 min; at 11 µM (top of the series)
Records with an inconclusive call do not appear.
Attribute: activity increase (activation)
Respond with the bare value in %.

Solved entries (count: 3):
1) CCCCCCC[C@H](N)[C@H](O)C(=O)N(C)[C@@H](CCS(C)=O)C(=O)N[C@@H](Cc1ccc(O)cc1)C(=O)N[C@@H](Cc1ccc(O)cc1)C(=O)O (some centres undefined) = -57.4
2) Cc1c(-c2ccccc2)c(=O)oc2cc(O)ccc12 = -87.3
3) CC1CCCC(C)N1CCCNC(=O)c1cc2c(s1)-c1ccccc1OC2 (centres undefined) = -45.6

Which activity increase (activation) is reported for this molecule? "CCN(CC)Cc1c(O)ccc2cc(-c3nc4ccccc4n3C)c(=O)oc12"
-105

Which activity increase (activation) is reported for this molecule? "Cc1cc(=O)oc2cc(NS(=O)(=O)c3ccc(F)cc3)ccc12"
-52

Which activity increase (activation) is reported for this molecule? "Cc1cc(N(C)Cc2ccccc2)nc2cc(O)ccc12"
-54
